# System: Enterococcus faecalis 15 376 VanA
# Method: MIC, broth micro dilution
# Settings: Enterococcus faecalis, 15376VANA
Measurement kind: MIC (µg/mL)
Numbers only, in µg/mL.

CCCCCc1cc(O)c(C/C=C(\C)CCC=C(C)C)c(O)c1 [Compound 2, (−)-cannabigerol] : 4
C=C(C)[C@@H]1CCC(C)=C[C@H]1c1c(O)cc(CCCCC)c(COCC)c1O : 128
CCCCCc1cc(O)c(C/C=C(\C)CCC=C(C)C)c2c1CN(CCCC(=O)O)CO2 : 128

Here is another molecule to look at.
Exam item: For the molecule C=C(C)[C@@H]1CCC(C)=C[C@H]1c1c(O)cc(CCCCC)cc1O [Compound 1, (−)-Cannabidiol] , give its measured MIC value.
Marked response: 4

----------
# Test system: SiHa cells
# Method: Antiproliferative MTT assay, 72 h
# Format: cell-based, human
# Settings: 10 and 30 μM
Measurement kind: antiproliferative activity (in words)

C=CCN1COc2c(c(CCCCC)c3c(c2C/C=C(\C)CCC=C(C)C)OCN(CC=C)C3)C1 [Compound 19b] : more active than CBG
CCCCCc1c2c(c(C/C=C(\C)CCC=C(C)C)c3c1CN(CCCC)CO3)OCN(CCCC)C2 [Compound 16b] : more active than CBG

----------
# Tested on: SZ95 sebocytes
# Method: Viability MTT-assay on sebocytes, 48 h
# Assay type: cell-based, human
# Settings: 30 μM
Measurement kind: viability (MTT signal intensity)

C=C(C)[C@@H]1CCC(C)=C[C@H]1c1c(O)cc(CCCCC)cc1O [Compound 1, (−)-Cannabidiol] : cytotoxic effects
C=C(C)[C@@H]1CCC(C)=C[C@H]1c1c(O)cc(CCCCC)c2c1OCN(CCCC)C2 [Compound 8] : cytotoxic effects

----------
# Tested on: Staphylococcus epidermidis mecA
# Method: MIC, broth micro dilution
# Settings: Staphylococcus epidermidis mecA
Measurement kind: MIC

Record excerpt, results attached:
CCCCCc1c2c(c(C/C=C(\C)CCC=C(C)C)c3c1CN(CCCC)CO3)OCN(CCCC)C2 [Compound 16b] : > 256 µg/mL
C=C(C)[C@@H]1CCC(C)=C[C@H]1c1c(O)cc(CCCCC)c2c1OCN(CCCC)C2 : > 256 µg/mL
C#CCN1COc2c(C/C=C(\C)CCC=C(C)C)c(O)cc(CCCCC)c2C1 : > 256 µg/mL
C#CCN1COc2c(c(CCCCC)cc(O)c2[C@@H]2C=C(C)CC[C@H]2C(=C)C)C1 : > 256 µg/mL

Exam item: For the compound C=C(C)[C@@H]1CCC(C)=C[C@H]1c1c(O)cc(CCCCC)c2c1OCN(CCCC)C2.Cl , give its measured MIC value.
Marked response: 128 µg/mL

----------
# Tested on: Staphylococcus epidermidis mecA
# Method: MIC, broth micro dilution
# Settings: Staphylococcus epidermidis
I'd appreciate it if you could supply MIC values for the items below.

Record excerpt, results attached:
C=C(C)[C@@H]1CCC(C)=C[C@H]1c1c(O)cc(CCCCC)c2c1OCN(Cc1ccccc1)C2 [Compound 10] : > 256 µg/mL
C=C(C)[C@@H]1CCC(C)=C[C@H]1c1c(O)cc(CCCCC)cc1O [Compound 1, (−)-Cannabidiol] : 8 µg/mL

Take each entry in turn and give its MIC.
1. C=C(C)[C@@H]1CCC(C)=C[C@H]1c1c(O)c(CN(CC)CC)c(CCCCC)c(CN(CC)CC)c1O [Compound 13]
2. CCCCCc1cc(O)c(C/C=C(\C)CCC=C(C)C)c(O)c1 [Compound 2, (−)-cannabigerol]

Marked response:
["> 256 µg/mL", "8 µg/mL"]

Take each entry in turn and give its MIC.
1. C=C(C)[C@@H]1CCC(C)=C[C@H]1c1c(O)cc(CCCCC)c2c1OCN(CCCC(=O)O)C2 [Compound 12]
2. CCCCCc1c(CN(CC)CC)c(O)c(C/C=C(\C)CCC=C(C)C)c(O)c1CN(CC)CC [Compound 21b]
3. C=C(C)[C@@H]1CCC(C)=C[C@H]1c1c(O)cc(CCCCC)c(COCC)c1O [Compound 9]
4. CCCCCc1cc(O)c(C/C=C(\C)CCC=C(C)C)c2c1CN(CCCC(=O)O)CO2 [Compound 20]
5. CCCCCc1cc(O)c(C/C=C(\C)CCC=C(C)C)c2c1CN(Cc1ccccc1)CO2 [Compound 17a]

Marked response:
1. > 256 µg/mL
2. > 256 µg/mL
3. > 256 µg/mL
4. > 256 µg/mL
5. > 256 µg/mL

----------
# Tested on: Vero E6 cells
# Settings: uninfected Vero E6 cells, three days, XTT
Measurement kind: CC50 (µM)
One number for each entry, in µM.

CCCCCc1c2c(c(C/C=C(\C)CCC=C(C)C)c3c1CN(CCCC)CO3)OCN(CCCC)C2 [Compound 16b] : 7.7

Here is another compound to look at.
Exam item: For the compound C#CCN1COc2c(c(CCCCC)cc(O)c2[C@@H]2C=C(C)CC[C@H]2C(=C)C)C1 [Compound 11] , give its measured CC50 value.
Marked response: 77

----------
I'd appreciate it if you could supply MIC values for the items below.
# System: MSSA (Methicillin Sensitive Staphylococcus aureus)
# Method: MIC, broth micro dilution

Record excerpt, results attached:
C#CCN1COc2c(c(CCCCC)cc(O)c2[C@@H]2C=C(C)CC[C@H]2C(=C)C)C1 : > 256 µg/mL
C#CCN1COc2c(C/C=C(\C)CCC=C(C)C)c(O)cc(CCCCC)c2C1 : > 256 µg/mL
C=C(C)[C@@H]1CCC(C)=C[C@H]1c1c(O)cc(CCCCC)c2c1OCN(CCCC)C2 : > 256 µg/mL
C=C(C)[C@@H]1CCC(C)=C[C@H]1c1c(O)cc(CCCCC)c2c1OCN(CCCC)C2.Cl : 128 µg/mL

Exam item: For the compound CCCCCc1c2c(c(C/C=C(\C)CCC=C(C)C)c3c1CN(CCCC)CO3)OCN(CCCC)C2 [Compound 16b] , give its measured MIC value.
Marked response: > 256 µg/mL

----------
# Tested on: SARS-CoV-2
# Method: SARS-CoV-2 cytopathic effect (CPE) inhibition assay in Vero E6 cells (XTT)
# Assay type: cell-based
# Settings: Vero E6 cells, 3 days post-infection, XTT
Measurement kind: EC50 (µM)
Numbers only, in µM.

Record excerpt, results attached:
C=C(C)[C@@H]1CCC(C)=C[C@H]1c1c(O)cc(CCCCC)c2c1OCN(CCCC)C2 : 21
C#CCN1COc2c(c(CCCCC)cc(O)c2[C@@H]2C=C(C)CC[C@H]2C(=C)C)C1 : 17

Exam item: For the molecule C#CCN1COc2c(C/C=C(\C)CCC=C(C)C)c(O)cc(CCCCC)c2C1 , give its measured EC50 value.
Marked response: 15

----------
# System: MRSA (Methicillin Resistant Staphylococcus aureus)
# Method: MIC, broth micro dilution
Measurement kind: MIC

Record excerpt, results attached:
C=C(C)[C@@H]1CCC(C)=C[C@H]1c1c(O)cc(CCCCC)c2c1OCN(CCCC)C2 : > 256 µg/mL
C#CCN1COc2c(c(CCCCC)cc(O)c2[C@@H]2C=C(C)CC[C@H]2C(=C)C)C1 : > 256 µg/mL
C#CCN1COc2c(C/C=C(\C)CCC=C(C)C)c(O)cc(CCCCC)c2C1 : > 256 µg/mL

Take each entry in turn and give its MIC.
1. C=C(C)[C@@H]1CCC(C)=C[C@H]1c1c(O)cc(CCCCC)c2c1OCN(CCCC)C2.Cl
2. CCCCCc1c2c(c(C/C=C(\C)CCC=C(C)C)c3c1CN(CCCC)CO3)OCN(CCCC)C2 [Compound 16b]

Marked response:
128 µg/mL
> 256 µg/mL

----------
# Tested on: MSSA (Methicillin Sensitive Staphylococcus aureus)
# Method: MIC, broth micro dilution
# Settings: Staphylococcus aureus
Measurement kind: MIC

Record excerpt, results attached:
CCCCCc1cc(O)c(C/C=C(\C)CCC=C(C)C)c2c1CN(Cc1ccccc1)CO2 [Compound 17a] : > 256 µg/mL
C=C(C)[C@@H]1CCC(C)=C[C@H]1c1c(O)cc(CCCCC)c2c1OCN(Cc1ccccc1)C2 : > 256 µg/mL
C=C(C)[C@@H]1CCC(C)=C[C@H]1c1c(O)cc(CCCCC)c2c1OCN(CCCC(=O)O)C2 : > 256 µg/mL
C=C(C)[C@@H]1CCC(C)=C[C@H]1c1c(O)cc(CCCCC)c(COCC)c1O : > 256 µg/mL
C=C(C)[C@@H]1CCC(C)=C[C@H]1c1c(O)cc(CCCCC)cc1O [Compound 1, (−)-Cannabidiol] : 4 µg/mL
CCCCCc1c(CN(CC)CC)c(O)c(C/C=C(\C)CCC=C(C)C)c(O)c1CN(CC)CC [Compound 21b] : > 256 µg/mL

Take each entry in turn and give its MIC.
1. CCCCCc1cc(O)c(C/C=C(\C)CCC=C(C)C)c2c1CN(CCCC(=O)O)CO2
2. C=C(C)[C@@H]1CCC(C)=C[C@H]1c1c(O)c(CN(CC)CC)c(CCCCC)c(CN(CC)CC)c1O
3. CCCCCc1cc(O)c(C/C=C(\C)CCC=C(C)C)c(O)c1 [Compound 2, (−)-cannabigerol]

Marked response:
1. > 256 µg/mL
2. > 256 µg/mL
3. 4 µg/mL

Origin of values: paper PMC10638401
